Molecular target: E3 ubiquitin-protein ligase XIAP (Homo sapiens)
Experiment: XIAP binders, primary screen, biophysical, small-molecule microarray, fluorescence 635 nm (AID 1181);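 further: score merges 667 nm emission and signal to noise over triplicate slides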
Conditions: small-molecule microarray binding, higher = more signal
Everything with composite z-score lower than 0.1 is Not satisfied; everything else, including exactly 0.1, is Satisfied.

Use the examples below as a reference point.
| molecule | label-value |
| --- | --- |
| COc1cc(Br)cc(C(O)C2C=CC3C(=O)N(C)C(=O)C3N2N2CCCCC2)c1OC (stereo not given) | Not satisfied |
| COc1ccc(CCNC(=O)[C@@]2(Sc3ccc(C)cc3)CC(=O)N(C3Cc4ccccc4C3)[C@@H]2c2ccc(CO)cc2I)cc1 | Satisfied |
| CCOC(=O)C[C@H]1[C@H](OC(=O)c2ccc(-c3ccccc3)cc2)[C@@H](NC(=O)Cc2ccc(OC)cc2)c2cc(OCCCO)ccc2N1C(=O)c1ccccc1 | Satisfied |
| [N-]=[N+]=NCc1ccccc1C[C@]1(C(N)=O)COC(c2ccc(OCCCO)cc2)=N1 | Satisfied |
| COC(=O)[C@@]1(CCC(=O)OC(C)(C)C)N=C(c2ccc(OCCCO)cc2)O[C@H]1c1ccccc1N=[N+]=[N-] | Satisfied |
| COCCCNC(=O)[C@@]1(C)c2ccccc2C(=O)N(C(C)C)[C@H]1c1ccc(CO)cc1 | Satisfied |

Is reported composite z-score greater than or equal to 0.1 here: CC(C)N1C(=O)C[C@@](C(=O)NCC(F)(F)F)(c2ccc([N+](=O)[O-])cc2)[C@H]1c1ccc(CO)cc1
Not satisfied

Is reported composite z-score greater than or equal to 0.1 here: COCCOC(=O)N1C(=O)[C@@]2(c3cc(C#CCCO)ccc31)[C@H](C(N)=O)[C@H]1C(=O)O[C@H](c3ccccc3)[C@H](c3ccccc3)N1[C@@H]2c1ccc(O)cc1
Satisfied

Is reported composite z-score greater than or equal to 0.1 here: COC(=O)[C@@]1(Cc2ccc(OC)cc2)[C@H]2c3cc(C(=O)N(C)C)n(Cc4ccccn4)c3C[C@H]2CN1C(=O)c1ccccc1
Satisfied

----------
Each record here notes measured composite z-score.
Assay: binders of probe aFGF2 on microarray, primary screen, stem cell growth factor project, biochemical, small-molecule microarray, fluorescence 635/667 (AID 1067);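 further: measures binding of biotinylated aFGF2 protein to printed compounds on slides; z-score merges feature fluorescence and signal-to-noise across triplicate slides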
Settings: higher = more signal
No unit in the answer, only the number.

Lab book: composite z-score of O=C1NC(=O)C2C1C=CC(C(O)c1cc(C(F)(F)F)cc(C(F)(F)F)c1)N2Nc1ccccn1 (configuration not stated) noted as -0.0524

----------
Assay: HepG2 liver cancer cell viability effects, profiling panel, resazurin fluorescence, 24 h, PK04 Diversity Set (AID 1172); further: test concentration not given here
Details: higher = more signal
recorded-metric: z-score

| molecular-string | z-score |
| --- | --- |
| COC(=O)[C@]1(CCC(=O)OC(C)(C)C)N=C(c2ccc(OCCCO)cc2)O[C@@H]1c1ccccc1CN=[N+]=[N-] | -1.72 |
| O=C1O[C@H](c2ccccc2)[C@H](c2ccccc2)N2[C@H]1[C@@H](C(=O)N1CCCCCCC1)[C@]1(C(=O)Nc3ccc(C#CCCO)cc31)[C@H]2c1ccccc1OCCO | -0.118 |
| C=C[C@H](OC)[C@@H](OC(=O)Nc1ccc(OC)cc1)c1ccc(O)c(F)c1 | -0.709 |

Kindly consider the entry below.
Lab book: z-score of [N-]=[N+]=NCc1ccccc1C[C@]1(C(=O)N2CCCCC2)N=C(c2ccc(OCCCO)cc2)O[C@H]1c1ccccc1N=[N+]=[N-] noted as 0.297

----------
Experiment: binders of probe aFGF2 on microarray, primary screen, stem cell growth factor project, biochemical, small-molecule microarray, fluorescence 635/667 (AID 1067);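 further: measures binding of biotinylated aFGF2 protein to printed compounds on slides; z-score merges feature fluorescence and signal-to-noise across triplicate slides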
Settings: higher = more signal
Everything with composite z-score lower than -0.09 is not met; everything else, including exactly -0.09, is met.

| molecular-string | label-value |
| --- | --- |
| C=CCNC(=O)[C@@H]1[C@H]2C(=O)O[C@H](c3ccccc3)[C@H](c3ccccc3)N2[C@H](c2ccccc2OCCO)[C@@]12C(=O)N(C(=O)OCCOC)c1ccccc12 | not met |
| NC(=O)NCC#Cc1ccc2c(c1)[C@]1(C(=O)N2)[C@H](C(=O)Nc2nc3ccccc3s2)[C@H]2C(=O)O[C@H](c3ccccc3)[C@H](c3ccccc3)N2[C@@H]1c1ccccc1OCCO | met |
| CC(C)N1C(=O)C[C@@](C(=O)NCC(F)(F)F)(c2ccc([N+](=O)[O-])cc2)[C@H]1c1ccc(CO)cc1 | not met |

Is reported composite z-score greater than or equal to -0.09 here: COC(=O)C(CC#Cc1ccc2c(c1)[C@]1(C(=O)N2)[C@H](c2ccc(OCCO)cc2)N2[C@H](c3ccccc3)[C@H](c3ccccc3)OC(=O)[C@H]2[C@@H]1C(=O)N1CCc2cc(OC)c(OC)cc2C1)C(=O)OC
met

----------
Each record here notes measured composite z-score.
Test system: Chordin-like protein 2 (CHRDL2)
Experiment: CHRDL2 small-molecule binders, primary screen, biochemical, small-molecule microarray, 635 nm fluorescence (AID 1126);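 further: printed compound slides probed with Chrdl2 protein at 4 µg/mL for 1 h at 4 C; score merges 667 nm emission intensity with signal to noise over three replicate slides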
Conditions: small-molecule microarray binding, fluorescence 635 nm; higher = more signal
No unit in the answer, only the number.

| compound | composite z-score |
| --- | --- |
| [N-]=[N+]=NCc1ccccc1C[C@]1(C(=O)N2CCCCC2)N=C(c2ccc(OCCCO)cc2)O[C@H]1c1ccccc1N=[N+]=[N-] | -0.518 |
| COC(=O)[C@@]1(Cc2ccc(F)cc2)[C@H]2c3cc(C(=O)N(C)C)n(Cc4ccccc4)c3C[C@H]2CN1C(=O)c1ccccc1 | -0.643 |
| CN(C)CCCC[C@@H]1NC(=O)[C@H]2C[C@@H](C(=O)NCCCCCCN)[C@@H](c3ccc(O)cc3)N2C1=O | 1.04 |
| C=C(COC)/C(=C/C[C@@H](OC(C)=O)c1ccc(OCCO)cc1)c1cnc2ccccc2c1 | 1.41 |
| COC(=O)C(CC#Cc1ccc2c(c1)[C@]1(C(=O)N2)[C@H](C(=O)Nc2nc3ccccc3s2)[C@H]2C(=O)O[C@H](c3ccccc3)[C@H](c3ccccc3)N2[C@@H]1c1ccc(O)cc1)C(=O)OC | 0.673 |

Lab book: composite z-score of COCCOC(=O)N1C(=O)[C@@]2(c3cc(C#CCC(C(=O)OC)C(=O)OC)ccc31)[C@H](C(=O)N1CCN(c3ncccn3)CC1)[C@H]1C(=O)O[C@H](c3ccccc3)[C@H](c3ccccc3)N1[C@@H]2c1ccccc1OCCO noted as 1.09

Lab book: composite z-score of CCC(CC)C(O)C1C=CC2C(=O)NC(=O)C2N1Nc1ccc(Cl)cc1Cl (stereo not drawn) noted as -0.381

----------
Assay: modulators of S6 phosphorylation in cells, primary screen, cell-based, A549, cytoblot, luminescence, serum-stimulated (AID 1158);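 further: serum-stimulated A549 lung adenocarcinoma cells; signal is phosphorylated S6 detected by cytoblot immunostaining with HRP secondary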
Details: A549 phospho-S6 cytoblot, 5 h, higher = more signal
Everything with z-score lower than -0.3 is False; everything else, including exactly -0.3, is True.

Use the examples below as a reference point.
| molecule | label-value |
| --- | --- |
| COc1ccc(C(O)C2C=CC3C(=O)N(Cc4ccccc4)C(=O)C3N2n2cnnc2)cc1OCc1ccccc1 (centres undefined) | True |
| COCCOC(=O)N1C(=O)[C@@]2(c3cc(C#CCC(C(=O)OC)C(=O)OC)ccc31)[C@H](C(=O)Nc1nc3ccccc3s1)[C@H]1C(=O)O[C@H](c3ccccc3)[C@H](c3ccccc3)N1[C@@H]2c1ccccc1OCCO | True |
| CCOC(=O)C[C@H]1[C@H](OC(=O)c2ccc(C(=O)c3ccccc3)cc2)[C@@H](NC(=O)c2ccc3ccccc3n2)c2cc(OCCCO)ccc2N1C(=O)c1ccccc1 | False |
| O=C(CS)NCCCCCCNC(=O)[C@@H]1C[C@@H]2C(=O)NCC(=O)N2[C@@H]1c1cccc(OCCO)c1 | True |
| CCCCCCc1nc(-c2ccc(OC)nc2)cc2c1[Si](C(C)C)(C(C)C)O[C@H]2c1ccccc1 | True |
| CCCC=C(CCC)[C@@H](NC(=O)c1cccs1)c1ccc(C(F)(F)F)cc1 | True |

Is reported z-score greater than or equal to -0.3 here: COc1ccc(CCNC(=O)[C@@]2(C)c3ccccc3C(=O)N(C(C)C)[C@H]2c2ccc(CO)cc2)cc1
False

Is reported z-score greater than or equal to -0.3 here: O=C(CS)NCCCCCCNC(=O)[C@@H]1C[C@@H]2C(=O)N[C@@H](Cc3ccccc3)C(=O)N2[C@@H]1c1cccc(OCCO)c1
False

----------
Experiment: inhibitors of hydroxyurea-induced Chk1 phosphorylation, primary screen, imaging, HeLa, phospho-Chk1 nuclear intensity (AID 1187); further: test concentration not given here
Settings: hydroxyurea-induced phospho-Chk1 immunofluorescence imaging, higher = more signal
Each record here notes measured z-score.
No unit in the answer, only the number.

Worked examples, 5 compounds total:
| compound | recorded-result |
| --- | --- |
| O=C1NC(=O)C2C1C=CC(C(O)c1cccs1)N2Nc1ccc(Cl)cc1Cl (stereo not given) | -0.45 |
| CCCC[C@@H]1C[C@H]1[C@@H](NC(=O)c1ccco1)c1ccccc1C(F)(F)F | -0.353 |
| C=C(CCCC)/C(=C/C[C@H](OC(C)=O)c1ccccc1OCCO)c1cc(C(=O)OC)ccc1OC | -0.714 |
| COCCOC(=O)N1C(=O)[C@@]2(c3cc(C#Cc4ccc(OC)cc4)ccc31)[C@H](c1ccccc1OCCO)N1[C@H](c3ccccc3)[C@H](c3ccccc3)OC(=O)[C@H]1[C@@H]2C(=O)NC[C@H](O)c1ccccc1 | -0.29 |
| C=CCC(OC(C)=O)[C@@H]1[C@@H](N(Cc2ccc(-c3ccccc3)cc2)C(=O)c2ccc(-c3ccccc3)cc2)c2cc(OCCCO)ccc2N1C(=O)Cc1ccc2ccccc2c1 (stereo not given in full) | 0.392 |

Lab book: z-score of COc1cccc(-c2cccc(=O)o2)c1 noted as -0.169

Lab book: z-score of CCOC(=O)C[C@H]1[C@H](OC(=O)c2ccc(C(=O)c3ccccc3)cc2)[C@@H](NC(=O)CC(C)C)c2cc(OCCCO)ccc2N1C(=O)c1ccc2ccccc2n1 noted as -0.687

Lab book: z-score of NC(=O)NCC#Cc1ccc2c(c1)[C@]1(C(=O)N2)[C@H](C(N)=O)[C@H]2C(=O)O[C@H](c3ccccc3)[C@H](c3ccccc3)N2[C@@H]1c1ccc(O)cc1 noted as 0.044

Lab book: z-score of CCCC[C@@H]1C[C@H]1[C@@H](NC(=O)c1ccco1)c1ccc(-c2ccccc2)cc1 noted as 0.0955

Lab book: z-score of CC(C)CNC(=O)[C@@]1(Cc2ccccc2I)c2ccccc2C(=O)N(C2CCCCC2)[C@H]1c1ccc(CO)cc1 noted as -0.0021

From: PubChem BioAssay
